These data points were gathered from PubChem BioAssay AID463173.

tested on: DeltatarO mutant; test: S. aureus survival, RN4220 and DeltatarO strains – OD600, teichoic acid synthesis inhibitors, primary screen (AID 463173); settings: S. aureus RN4220 wild type/DeltatarO growth, OD600, 18 h, screened at 18.75 µg/mL (by protocol)
Out of some 52,000 compounds screened, about 4,300 (8.3%) were called active. Cut-off read from the data, not from the text of the source: active = survival mostly below about 52% (no sharp cut-off); inactive = mostly above about 56%. This is one part of a sample in which actives are shown more often than they occur.
API: response.call in t for active, f for inactive

COMPOUND | LABEL
CC(=O)Nc1c(C)nn(-c2ccccc2)c1N1CCC(C(=O)NCc2cccc(Cl)c2)CC1 | f
CC(=O)Nc1c(C)nn(-c2ccccc2)c1N1CCC(C(=O)Nc2cc(F)ccc2F)CC1 | f
Cc1ccc(/C=C/c2onc(C)c2S(=O)(=O)N2CCC(C(=O)N3CCN(c4ccccc4F)CC3)CC2)cc1 | f
CC(=O)Nc1c(C)nn(-c2ccccc2)c1N1CCC(C(=O)Nc2ccc(C)cc2Cl)CC1 | f

Status in this test for CCCCCOC(=O)CSc1ncnc2sc3c(c12)CCC(C)C3 (stereo not given) ?
t

Status in this test for CC(C)c1cccc(C(C)C)c1NS(=O)(=O)c1cccs1 ?
t

###

Here the recorded survival is given for each entry.
tested on: DeltatarO mutant; assay: S. aureus survival, RN4220 and DeltatarO strains – OD600, teichoic acid synthesis inhibitors, primary screen (AID 463173); details: S. aureus RN4220 wild type/DeltatarO growth, OD600, 18 h, stronger effect = lower value, screened at 18.75 µg/mL (by protocol)
About 4,300 (8.3%) of roughly 52,000 compounds were called active. Shown is part of a subset that was picked to be rich in actives.
Use % as the unit, but write only the number.

Recorded results for 3 compounds are shown here.
COMPOUND STRUCTURE | TARGET OR SYSTEM | survival [%]
COc1cc(NC(=O)Cn2c(=O)n(Cc3ccco3)c(=O)c3oc4ccccc4c32)cc(OC)c1 | DeltatarO mutant | 38
Cc1ccc(C)c(Cn2c(=O)n(Cc3ccco3)c(=O)c3oc4ccccc4c32)c1 | DeltatarO mutant | 97
CC(C)n1c(=O)c2oc3ccccc3c2n(Cc2ccccc2F)c1=O | DeltatarO mutant | 50

Fill in: survival of Cc1ccc(C)c(Cn2c(=O)n(C(C)C)c(=O)c3oc4ccccc4c32)c1 is ___
51

Fill in: survival of O=c1c2oc3ccccc3c2n(Cc2ccccc2F)c(=O)n1Cc1ccco1 is ___
77

###

system: DeltatarO mutant; test: S. aureus survival, RN4220 and DeltatarO strains – OD600, teichoic acid synthesis inhibitors, primary screen (AID 463173); conditions: S. aureus RN4220 wild type/DeltatarO growth, OD600, 18 h, screened at 18.75 µg/mL (by protocol)
Screen size: about 52,000 compounds; about 4,300 (8.3%) were called active. Rule as the data show it: active = survival mostly below about 52% (no sharp cut-off); inactive = mostly above about 56%. The sample holds actives, similar compounds and a random draw of the others, so the mix is not that of the screen.
API: response.call in class 1 (active), class 0 (inactive)

Some entries whose results are on file:
COMPOUND | LABEL
O=C(CC1(O)C(=O)N(CCc2ccccc2)c2ccc(Br)cc21)c1ccccc1 (stereo not given) | class 1
Cc1ccc(NC(=O)C(Cc2c[nH]c3ccccc23)NC(=O)OC(C)(C)C)c(C)c1 (stereo not given) | class 1
COC(=O)c1cnn(-c2ccc(C(=O)Nc3ccc(OC(F)(F)F)cc3)cc2)c1N | class 1
COc1ccc(CNC(=O)c2ccc(-c3nc(CSc4ccccc4)c(C)o3)cc2)cc1OC | class 0

Status in this test for COCCn1c(COc2cccc(OC)c2)nnc1SCC(=O)NC1CCCC1 ?
class 0

Status in this test for CCOc1cc(C(=O)N2CCC(c3ccncc3)CC2)cc(OCC)c1OCC ?
class 1

Status in this test for COc1ccc(S(=O)(=O)N(C(=O)c2ccncc2)c2ccc3oc(C)c(C(C)=O)c3c2)cc1 ?
class 0

Status in this test for CC(NC(=O)c1ccc2c(c1)N(Cc1ccc(Cl)cc1)C(=O)c1ccccc1S2(=O)=O)c1ccccc1 (stereo not given) ?
class 0

Status in this test for COc1ccc(NC(=O)c2cnn(-c3ccc(F)cc3F)c2C2CCN(C(=O)OC(C)(C)C)CC2)cc1Cl ?
class 0

Status in this test for O=C(NCCc1ccc(Cl)cc1)c1ccc2c(c1)N(Cc1ccc(F)cc1Cl)C(=O)CS2 ?
class 0
